Reference source: PubChem BioAssay (NCI)

System: M14 melanoma
EXPERIMENT SUMMARY: NCI tumour cell line growth inhibition, 48 h
METRIC: GI50

>>> print(df.to_string())
                                   compound  target_or_test_system  metric  value_observed
0  CCn1c(-c2nonc2N)nc2cncc(C(=O)N3CCNCC3)c21           M14 melanoma    GI50         > 25 µM
1  COc1cc2nc(Cl)nc(Nc3cccc(C(=O)/C=C/c4ccccc4)c3)c2cc1OC           M14 melanoma    GI50         5.01 µM
2  CC(C)(O)c1ccc(N2CCN(c3nnc(Cc4ccccc4)c4ccccc34)CC2)nc1           M14 melanoma    GI50         8.86 µM
3       Fc1ccc(-c2nc3n(c2-c2ccncc2)CCS3)cc1           M14 melanoma    GI50         > 25 µM
4  CC[C@H](Nc1nc(N)nc(C)c1C#N)c1nc2cccc(CN(C)c3ncc(C(=O)NO)cn3)c2c(=O)n1-c1ccccc1           M14 melanoma    GI50         1.08 µM
5  OCC1OC(n2ccc3c2ncn2ncnc32)C(O)C1O (stereo not given)           M14 melanoma    GI50         5.65 µM
6  COc1ccc(Cn2nc(-c3cc(OC)c(OC)c(OC)c3)c3c2CCc2cnoc2-3)cc1OC           M14 melanoma    GI50         4.08 µM
7  CCC[CH2][Sn]([CH2]CCC)([O]C(C)=O)[O]C(C)=O           M14 melanoma    GI50         1.74 µM
8   CCN(CC)c1ccc(/C=C/c2cc(C)c3ccccc3n2)cc1           M14 melanoma    GI50         3.42 µM
9  COc1cc2c(cc1OC)-c1ccc3cc4c(cc3c1N(CCN1CCCC1)C2)OCO4           M14 melanoma    GI50        0.574 µM

---

System: HS 578T breast
EXPERIMENT SUMMARY: NCI tumour cell line growth inhibition, 48 h
METRIC: TGI (µM)

>>> print(df.to_string())
                                   compound  metric  reading_qualifier  value_observed
0  Cc1ccc2[nH]c(C(=O)NN3C(=O)CSC34CCCCC4C)c(-c3ccccc3)c2c1 (stereo not given)     TGI                  =            96.2
1                  CSC1=N[C@H](c2ccccc2)CS1     TGI                  >             100
2  C=CCC(N[C@H](CO)C(C)C)c1cn(C(=O)OCC)c2ccccc12 (stereo not given in full)     TGI                  >             100
3  COC(=O)[C@H](Cc1ccccc1)NC(=O)NCCN(CCNC(=O)N[C@@H](Cc1ccccc1)C(=O)OC)C(=O)N[C@@H](Cc1ccccc1)C(=O)OC     TGI                  =            45.3
4  Cc1cc(N2CCCCC2)nc(N(CCNc2ccnc3cc(Cl)ccc23)Cc2ccco2)n1     TGI                  =            5.52

---

System: HOP-92 NSCLC
EXPERIMENT SUMMARY: NCI tumour cell line growth inhibition, 48 h; in the data active = GI50 below about 0.43 µM; inactive = the rest
Labels: YES (active), NO (inactive)

COMPOUND	ANSWER LABEL
c1ccc2[nH]c(-c3ccc(N4CCN(c5ccc(-c6nc7ccccc7[nH]6)cc5)CC4)cc3)nc2c1	NO
CCn1c(-c2nonc2N)nc2cncc(C(=O)N3CCNCC3)c21	NO
CC12CCC=CC1CCC1C2CCC2(C)C(c3ccc(=O)oc3)CCC12O (stereo not given)	YES
CC1(C)CCC2(C(=O)OC3OC(CO)C(O)C(O)C3O)CC[C@]3(C)C(=CCC4C5(C)CC[C@H](OC6OC(C(=O)O)C(O)C(O)C6O)C(C)(C)C5CCC43C)C2C1 (stereo not given in full)	NO
CCN(CC)c1ccc(/C=C/c2cc(C)c3ccccc3n2)cc1	NO
COc1ccc(-c2ccc(-c3ccc(C(=N)N)nc3)s2)cc1	NO
N=C(N)c1nn(C2OC(CO)C(O)C2O)c2nc[nH]c(=O)c12 (stereo not given)	NO
COc1cccc(OC(=O)c2ccccc2Nc2ccnc(C(F)(F)F)c2)c1	NO
Nc1nc(/C=C\c2ccc([N+](=O)[O-])o2)nc(N2CCN(c3ccccc3)CC2)n1	NO
CC1=C(C(=O)OCc2ccccc2)C(c2ccc3c(c2)OCO3)n2c(nc3ccccc32)N1 (stereo not given)	NO
c1ccc2nc(Cn3c[n+](Cc4ccc5ccccc5n4)c4ccccc43)ccc2c1	NO
COc1cc2c(cc1OC)-c1ccc3cc4c(cc3c1N(CCN1CCCC1)C2)OCO4	NO
C=C1C(=O)O[C@@H]2C1CC(=O)C(C)CC/C=C(\C)CCC[C@H](C)[C@H]2OC(C)=O (stereo not given in full)	NO
CCOC(=O)Cc1c[nH]c(=S)[nH]c1=O	NO
COc1cc2nc(Cl)nc(Nc3cccc(C(=O)/C=C/c4ccccc4)c3)c2cc1OC	NO
CCc1ccc(NCc2cc(OC)c(OC)c(OC)c2)cc1	NO
COc1ccc2c(c1)CC[C@@H]1[C@@H]2CC[C@]2(C)C(=O)C3(CCCCC3)C[C@@H]12	NO
CN(C)CCCNC(=O)c1cc(NC(=O)CCNS(=O)(=O)c2ccc3c(c2)C(=O)c2ccccc2C3=O)cn1C	NO
COc1ccc(C(=O)/C=C/c2ccc(Cl)cc2)cc1S(=O)(=O)Nc1c(N)nc(SC)[nH]c1=O	NO
N#CSc1ncnc2nc[nH]c12	NO

---

Test system: SR leukemia
EXPERIMENT SUMMARY: NCI tumour cell line growth inhibition, 48 h; in the data active means GI50 below about 0.43 µM; inactive means the rest
Labels: true (1) for active, false (0) for inactive

                                   compound  target_or_test_system  answer_label
0  C=C(C)[C@@H]1CC[C@]2(C(=O)NCCCN)CC[C@]3(C)[C@H](CC[C@@H]4[C@@]5(C)CC[C@H](O)C(C)(C)[C@@H]5CC[C@]43C)[C@@H]12            SR leukemia     false (0)
1  CC12CCC=CC1CCC1C2CCC2(C)C(c3ccc(=O)oc3)CCC12O (centres undefined)            SR leukemia      true (1)
2  Nc1nc(/C=C\c2ccc([N+](=O)[O-])o2)nc(N2CCN(c3ccccc3)CC2)n1            SR leukemia     false (0)
3       Fc1ccc(-c2nc3n(c2-c2ccncc2)CCS3)cc1            SR leukemia     false (0)
4  CCn1c(-c2nonc2N)nc2cncc(C(=O)N3CCNCC3)c21            SR leukemia     false (0)
5  CC[C@H](Nc1nc(N)nc(C)c1C#N)c1nc2cccc(CN(C)c3ncc(C(=O)NO)cn3)c2c(=O)n1-c1ccccc1            SR leukemia      true (1)
6  CCN=C1C=CC(=C(c2ccc(N(C)C)cc2)c2ccc(N(C)C)cc2)c2ccccc21            SR leukemia      true (1)
7  NC(=O)[C@H]1CCN(c2ncnc(N)c2F)C[C@@H]1N1CCC[C@@H](Nc2cc(Cl)cc(C(F)(F)F)c2)C1=O            SR leukemia     false (0)
8  CC(C)(O)c1ccc(N2CCN(c3nnc(Cc4ccccc4)c4ccccc34)CC2)nc1            SR leukemia     false (0)

---

Catalogue of TGI values
Tested on: SK-MEL-28 melanoma
EXPERIMENT SUMMARY: NCI tumour cell line growth inhibition, 48 h
METRIC: TGI

>>> print(df.to_string())
                                   molecule  metric  value_observed
0  CN(C)CCNC(=O)c1cccn2c(=O)c3cc4ccccc4cc3nc12     TGI          2.9 µM
1  COc1cc2c(/C=C3/C(=O)Nc4ccc(Cl)cc43)c(Cl)n(Cc3ccccc3)c2cc1C     TGI         9.46 µM
2  CC1=C2CCCC2C/C(=N/Nc2ccc([N+](=O)[O-])cc2[N+](=O)[O-])CC1 (centres undefined)     TGI        > 100 µM
3     CN(C)c1ccc2nc3ccc(=[N+](C)C)cc-3oc2c1     TGI         45.7 µM

---

Test system: KM12 colon
EXPERIMENT SUMMARY: NCI tumour cell line growth inhibition, 48 h
METRIC: TGI (µM)

COMPOUND	READING QUALIFIER	VALUE OBSERVED
O=C(CCl)c1ccc([N+](=O)[O-])o1	=	4.6
CC(C)=CCOc1cc(NC(=S)c2ccoc2C)ccc1Cl	>	100
COC(=O)[C@H](Cc1ccccc1)NC(=O)NCCN(CCNC(=O)N[C@@H](Cc1ccccc1)C(=O)OC)C(=O)N[C@@H](Cc1ccccc1)C(=O)OC	=	39.5
Cc1nn2c(=O)c([N+](=O)[O-])c(/C=C/c3ccccc3)nc2s1	=	11
Nc1ncnc2sc(=S)c3c(c12)CCC3	>	100
C=C1C(=O)C([Si](C)(C)C)=C2C=C(C)C3(CC3)C12C (centres undefined)	>	100
c1csc(-c2cscc2-c2ccsc2)c1	>	85.6
C=C1C(=O)O[C@@H]2C1CC(=O)C(C)CC/C=C(\C)CCC[C@H](C)[C@H]2OC(C)=O (some centres undefined)	=	29.1
COc1ccccc1C1CC(=O)CC(c2ccccc2OC)C12C(=O)NC(=S)NC2=O (centres undefined)	>	100
Cc1ccc(C(=O)Nc2ccc(S(=O)(=O)O)c3cc(S(=O)(=O)O)cc(S(=O)(=O)O)c23)cc1NC(=O)c1cccc(N)c1	>	100
Fc1c(F)c(C(F)(F)F)c(F)c(F)c1N/N=C\c1c[nH]c2ccccc12	=	4.06
CCCN(Cc1ccc(F)cc1)c1ccc(CO)c(Cl)c1	=	27.3
N#CC(C#N)=CN1CCN(C(=O)c2ccco2)C1=S	=	32.2
COc1ccccc1[N-]C(C1=C([O-])c2ccccc2C1=O)c1ccccc1.COc1ccccc1[N-]C(C1=C([O-])c2ccccc2C1=O)c1ccccc1.[Cu+2] (centres undefined)	=	43.1
